- experimental-target: Adenosine receptor A1 (Homo sapiens)
- method-description: Displacement of [3H]DPCPX from human A1 adenosine receptor expressed in Flp-In-CHO cells by radioligand competitive binding assay
- Format: cell-based
pKi: −log10 of the molar value.
Parameter threshold = 8. Response is label 1 when pKi meets or exceeds it, else label 0.

Examples from the recorded data:
{"compound-smiles": "CCCn1c(=O)c2[nH]c(C34CCC(C(=O)NCCCNC(=O)COCCOCCNC(=O)OC(C)(C)C)(CC3)CC4)nc2n(CCC)c1=O", "label": "label 0"}
{"compound-smiles": "CCCn1c(=O)c2[nH]c(C34CCC(C(=O)NCCNC(=O)COCCOCCNC(=O)OC(C)(C)C)(CC3)CC4)nc2n(CCC)c1=O", "label": "label 0"}
{"compound-smiles": "CCCn1c(=O)c2[nH]c(C34CCC(C(=O)NCCNC(=O)CCCCCNC(=O)COc5ccc(/C=C/C6=[N+]7C(=Cc8ccc(-c9cccs9)n8[B-]7(F)F)C=C6)cc5)(CC3)CC4)nc2n(CCC)c1=O", "label": "label 0"}
{"compound-smiles": "O[C@H]1CC[C@H](Nc2nc(-c3ccccc3)nc3[nH]ccc23)CC1", "label": "label 1"}
{"compound-smiles": "CCCn1c(=O)c2[nH]c(C34CC5CC(CC(C5)C3)C4)nc2n(CCCNC(=O)c2ccc(C(=O)NCCNC(=O)CCNC(=O)CCCCC[N+]3=C(/C=C/C=C/C=C4/N(C)c5ccc(S(=O)(=O)O)cc5C4(C)C)C(C)(C)c4cc(S(=O)(=O)[O-])ccc43)cc2)c1=O", "label": "label 0"}

# next compound below
Asked: Could you please find out whether CCCn1c(=O)c2[nH]c(C34CCC(C(=O)NCCNC(=O)CCNC(=O)CCNC(=O)CCCCCNC(=O)COc5ccc(/C=C/C6=[N+]7C(=Cc8ccc(-c9cccs9)n8[B-]7(F)F)C=C6)cc5)(CC3)CC4)nc2n(CCC)c1=O has pKi that meets 8 or exceeds it?
Given back: label 1

###

- experimental-target: Adenosine receptor A1 (Rattus norvegicus)
- Sequence (P25099 whole entry): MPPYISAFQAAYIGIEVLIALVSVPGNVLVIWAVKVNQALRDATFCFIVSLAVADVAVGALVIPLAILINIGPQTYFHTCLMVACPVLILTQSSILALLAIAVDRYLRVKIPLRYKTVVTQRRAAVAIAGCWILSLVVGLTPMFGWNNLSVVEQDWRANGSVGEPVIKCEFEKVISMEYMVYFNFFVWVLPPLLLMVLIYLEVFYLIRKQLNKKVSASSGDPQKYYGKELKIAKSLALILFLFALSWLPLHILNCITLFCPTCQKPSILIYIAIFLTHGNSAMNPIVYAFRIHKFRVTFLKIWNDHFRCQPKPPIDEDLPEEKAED
result-type: Kd (nM)
Field format: number, assumed nM, no unit text.

Asked: Checklist item: Kd tested on Adenosine receptor A1 (Rattus norvegicus), entry CCCn1c(=O)c2[nH]c(-c3ccc(OCC(=O)NCCNC(=O)CCNC(=O)CCCCNC(=O)CCCCNC(=O)COc4ccc(/C=C/C5=[N+]6C(=Cc7ccc(-c8cccs8)n7[B-]6(F)F)C=C5)cc4)cc3)nc2n(CCC)c1=O , value?
Given back: 35.5

###

- experimental-target: Adenosine receptor A1 (Homo sapiens, UniProt P30542)
- Sequence (P30542 whole entry): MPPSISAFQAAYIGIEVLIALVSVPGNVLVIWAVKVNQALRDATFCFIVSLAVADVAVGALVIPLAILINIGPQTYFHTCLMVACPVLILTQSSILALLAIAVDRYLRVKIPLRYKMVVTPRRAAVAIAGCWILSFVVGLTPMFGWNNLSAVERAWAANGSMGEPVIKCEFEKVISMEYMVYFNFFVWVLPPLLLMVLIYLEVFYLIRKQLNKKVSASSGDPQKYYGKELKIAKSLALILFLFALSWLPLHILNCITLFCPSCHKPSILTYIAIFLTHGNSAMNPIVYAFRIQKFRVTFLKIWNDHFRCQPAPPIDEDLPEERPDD
- method-description: Displacement of [3H]DPCPX from human A1 adenosine receptor expressed in Flp-In-CHO cells by radioligand competitive binding assay
- Assay type: cell-based
result-type: Ki (nM)
Field format: number, assumed nM, no unit text.

The following compounds have reported results that may help.
{"compound-smiles": "CCCn1c(=O)c2[nH]c(C34CCC(C(=O)NCCNC(=O)COCCNC(=O)OC(C)(C)C)(CC3)CC4)nc2n(CCC)c1=O", "experimental-target": "Adenosine receptor A1 (Homo sapiens, UniProt P30542)", "units-text": "nM", "Ki": 13.8}
{"compound-smiles": "CCCn1c(=O)c2[nH]c(C34CCC(CCC(=O)NCCNC(=O)CCNC(=O)CCNC(=O)OC(C)(C)C)(CC3)CC4)nc2n(CCC)c1=O", "experimental-target": "Adenosine receptor A1 (Homo sapiens, UniProt P30542)", "units-text": "nM", "Ki": 7.76}
{"compound-smiles": "CCCn1c(=O)c2[nH]c(C34CC5CC(CC(C5)C3)C4)nc2n(CCCNC(=O)c2ccc(C(=O)NCCNC(=O)CCCCCNC(=O)COc3ccc(/C=C/C4=[N+]5C(=Cc6ccc(-c7cccs7)n6[B-]5(F)F)C=C4)cc3)cc2)c1=O", "experimental-target": "Adenosine receptor A1 (Homo sapiens, UniProt P30542)", "units-text": "nM", "Ki": 5.89}

# context switch: different compound, same Ki
Asked: Checklist item: Ki tested on Adenosine receptor A1 (Homo sapiens, UniProt P30542), entry CCCn1c(=O)c2[nH]c(C34CCC(C(=O)NCCC(=O)NCCNC(=O)COCCNC(=O)OC(C)(C)C)(CC3)CC4)nc2n(CCC)c1=O , value?
Given back: 11.2
